Origin of values: patent US20260226179A1

# targetOfAssay: T1, human membrane-bound IL-6R subunit alpha (human, UniProt P08887 20-468)
# T1 sequence: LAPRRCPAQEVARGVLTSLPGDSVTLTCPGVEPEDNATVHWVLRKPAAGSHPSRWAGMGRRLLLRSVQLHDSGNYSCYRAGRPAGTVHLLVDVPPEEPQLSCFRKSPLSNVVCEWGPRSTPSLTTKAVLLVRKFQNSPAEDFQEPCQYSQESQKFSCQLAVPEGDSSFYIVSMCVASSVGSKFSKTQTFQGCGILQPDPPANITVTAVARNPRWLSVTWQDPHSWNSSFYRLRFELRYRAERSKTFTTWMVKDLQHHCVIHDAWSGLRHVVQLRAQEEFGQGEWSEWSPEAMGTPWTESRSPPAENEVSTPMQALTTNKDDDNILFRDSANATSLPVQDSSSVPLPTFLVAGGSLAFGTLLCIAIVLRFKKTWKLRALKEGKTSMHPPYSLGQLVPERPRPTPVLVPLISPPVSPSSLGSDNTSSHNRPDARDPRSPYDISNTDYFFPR
# methodNotes: cell-based or functional assay
A collection of binders and their measured Proliferation in % of Ba/F3_gp130_IL-6R cells (10 ng/ml IL-6 = 100%), IgG at 10 µg/ml
The reply should be a number in %, with the unit left off.

# binder, assayResult
records = [
    ("anti-IL-6R IgG antibody 12 (C12 antibody, Fab chimerized with human IgG1) (antibody, V domains shown) VH: EVKLMESGGGLVQPGGSLKLSCAASGFTFSNYGMSWVRQTPDKRLEWVANINSNGGSTYYPDSVKGRFTISRDNAQNTLYLQMSSLKSEDTAMYYCTRDGNFVSDYWGQGTTLTVSS VL: DIVLTQSPASLAVSPGQRATISCRASESVDSYGNSFMNWYQQKPGQPPKLLIYLASNLESGVPARFSGSGSRTDFTLTIDPVEADDAATYYCQQNNEDPYTFGGGTKLEIK", 92.2),
]

Now examine the next entry.
Can you share its Proliferation in % of Ba/F3_gp130_IL-6R cells (10 ng/ml IL-6 = 100%), IgG at 10 µg/ml? I mean this binder: anti-IL-6R IgG antibody 20 (C20 antibody, Fab chimerized with human IgG1) (antibody, V domains shown) VH: EVKLMESGGGLVQPGGSLKLSCAASGFTFSNYGMSWVRQTPDKRLELVAIINSNGGSTYYPDSVKGRFTISRDNAKNTLYLQMSSLKSEDTAIYYCARDGNFVSDYWGQGTTLTVSS VL: DIVLTQSPASLAVSLGQRATISCRASESVDSYGNRFLNWYQQKPGQPPKLLIYLASNLESGVPARFSGSGSRTDFTLTIDPVEADDAATYYCQQNNEDPYTFGGGTKLEIK
87.6
